test system: Staphylococcus aureus; assay: Antibacterial activity against Staphylococcus aureus ATCC 29213 assessed as reduction in microbial growth by two fold microdilution method; type: functional
Catalogue of molecules with associated MIC

>  <structure_string>
COC(=O)CO/N=C(\CN1CCN(c2c(F)cc3c(=O)c(C(=O)O)cn(C4CC4)c3c2Cl)CC1)c1nccs1

>  <MIC (µg/mL)>
0.25

$$$$
>  <structure_string>
CCn1cc(C(=O)O)c(=O)c2cc(F)c(N3CCN(C/C(=N\OC)c4nccs4)CC3)cc21

>  <MIC (µg/mL)>
0.25

$$$$
>  <structure_string>
CCn1cc(C(=O)O)c(=O)c2cc(F)c(N3CCN(C/C(=N\OCc4ccccc4)c4nccs4)CC3)cc21

>  <MIC (µg/mL)>
256

$$$$
>  <structure_string>
CCn1cc(C(=O)O)c(=O)c2cc(F)c(N3CCN(C/C(=N\OCC(=O)OC)c4nccs4)CC3)cc21

>  <MIC (µg/mL)>
2

$$$$
>  <structure_string>
CCn1cc(C(=O)O)c(=O)c2cc(F)c(N3CCN(CC(=O)c4nccs4)CC3)cc21

>  <MIC (µg/mL)>
1

$$$$
>  <structure_string>
CCn1cc(C(=O)O)c(=O)c2cc(F)c(N3CCNCC3)cc21

>  <MIC (µg/mL)>
2

$$$$
>  <structure_string>
CCO/N=C(\CN1CCN(c2c(F)cc3c(=O)c(C(=O)O)cn(C4CC4)c3c2Cl)CC1)c1nccs1

>  <MIC (µg/mL)>
0.25

$$$$
>  <structure_string>
C=CCO/N=C(\CN1CCN(c2cc3c(cc2F)c(=O)c(C(=O)O)cn3C2CC2)CC1)c1nccs1

>  <MIC (µg/mL)>
32

$$$$
>  <structure_string>
CO/N=C(\CN1CCN(c2c(F)cc3c(=O)c(C(=O)O)cn(C4CC4)c3c2Cl)CC1)c1nccs1

>  <MIC (µg/mL)>
0.25

$$$$
>  <structure_string>
C=CCO/N=C(\CN1CCN(c2c(F)cc3c(=O)c(C(=O)O)cn(C4CC4)c3c2Cl)CC1)c1nccs1

>  <MIC (µg/mL)>
0.5

$$$$
>  <structure_string>
O=C(O)c1cn(C2CC2)c2c(Cl)c(N3CCN(C/C(=N\OCc4ccccc4)c4nccs4)CC3)c(F)cc2c1=O

>  <MIC (µg/mL)>
2

$$$$
>  <structure_string>
C=CCO/N=C(\CN1CCN(c2cc3c(cc2F)c(=O)c(C(=O)O)cn3CC)CC1)c1nccs1

>  <MIC (µg/mL)>
2

$$$$
>  <structure_string>
CCO/N=C(\CN1CCN(c2cc3c(cc2F)c(=O)c(C(=O)O)cn3C2CC2)CC1)c1nccs1

>  <MIC (µg/mL)>
4

$$$$
>  <structure_string>
CO/N=C(\CN1CCN(c2cc3c(cc2F)c(=O)c(C(=O)O)cn3C2CC2)CC1)c1nccs1

>  <MIC (µg/mL)>
0.25

$$$$
>  <structure_string>
CCn1cc(C(=O)O)c(=O)c2cc(F)c(N3CCN(C/C(=N\OC(C)(C)C)c4nccs4)CC3)cc21

>  <MIC (µg/mL)>
16

$$$$
>  <structure_string>
CC(C)(C)O/N=C(\CN1CCN(c2cc3c(cc2F)c(=O)c(C(=O)O)cn3C2CC2)CC1)c1nccs1

>  <MIC (µg/mL)>
4

$$$$
>  <structure_string>
O=C(O)c1cn(C2CC2)c2cc(N3CCN(C/C(=N\OCc4ccccc4)c4nccs4)CC3)c(F)cc2c1=O

>  <MIC (µg/mL)>
0.5

$$$$
